Cited source for all entries: PubChem BioAssay (NCI)

Listed here are compounds together with their documented TGI.
System: HOP-92 NSCLC
Experiment: NCI tumour cell line growth inhibition, 48 h
Give the value in µM but do not write µM after it.

Known TGI results, listed for orientation:
1. O=[N+]([O-])/C=C\c1c[nH]c2ccc(OCc3ccccc3)cc12	19.4
2. CCc1cccc(CC)c1NC(=O)C1=C(C)NC(C)=C(C(=O)Nc2c(CC)cccc2CC)C1c1ccc2c(c1)OCO2	32.1
3. O=[N+]([O-])C(=C(Nc1ccccc1)Nc1ccccc1)/C(Cl)=C(\Cl)Br	33.6
4. Cn1c2ccccc2c(=O)c2c([N+](=O)[O-])ccc(NCCN)c21	20.2

The compound identified as `CCOC(=O)c1[nH]c(CN(C)Cc2[nH]c(C(=O)OCC)c(C)c2C(=O)OCc2ccccc2)c(C(=O)OCc2ccccc2)c1C` registered its TGI at 8.73

* * *

Listed here are compounds together with their documented TGI.
Tested on: DLD-1 colon
Test: NCI tumour cell line growth inhibition, 48 h

1. COC(=O)C1N=CSCC1(C)O (configuration not stated)	> 100 µM

The compound identified as N#CC(C(=N/NC(N)=S)/C(=N/NC(N)=S)C(C#N)c1ccc(Cl)cc1)c1ccc(Cl)cc1 (configuration not stated) registered its TGI at > 100 µM

The compound identified as CN(C)CC1(Cc2ccccc2)CCC(Cc2ccccc2)C1=O (configuration not stated) registered its TGI at 8.26 µM

The compound identified as `CC1(C)CC(=O)C(=[N+]=[N-])C(=O)C1` registered its TGI at > 100 µM

The compound identified as `O=C(O)/C(=C\c1ccccc1Cl)S(=O)(=O)c1ccccc1` registered its TGI at > 100 µM

The compound identified as `COC(=O)/C(=C/c1ccc(OC)cc1)NC(=O)c1ccccc1` registered its TGI at > 100 µM

The compound identified as `CCCCCC(O)(CCCCC)CCCCCCCCC1=C(O)c2[nH]c(=O)ccc2C(=O)C1=O` registered its TGI at 19.7 µM

The compound identified as CCc1cccc(C(C)CC)c1NC(=O)C(=O)C(CC(=O)Nc1ccc(Cl)c(Cl)c1)C(=O)OC (configuration not stated) registered its TGI at > 100 µM

The compound identified as `Cc1cccc(C)c1NC(=O)CCC(=O)NC(N)=S` registered its TGI at > 100 µM

The compound identified as `O=S(=O)(O)c1cc(N=Nc2cc(S(=O)(=O)O)c3cccnc3c2O)ccc1/C=C/c1ccc(N=Nc2cc(S(=O)(=O)O)c3cccnc3c2O)cc1S(=O)(=O)O` registered its TGI at > 100 µM

The compound identified as `O=[N+]([O-])[O-].O=[N+]([O-])[O-].[Au].[Au].c1ccc([P-]c2ccccc2)cc1.c1ccc([P-]c2ccccc2)cc1` registered its TGI at > 100 µM

The compound identified as `BrC1=CC=C2NCCCCCCN=C3C=CC(Br)=CC=C3NCCCCCCN=C2C=C1` registered its TGI at > 25.5 µM

* * *

Tested on: SR leukemia
Assay: NCI tumour cell line growth inhibition, 48 h
reported metric: TGI

Known TGI results, listed for orientation:
1. c1cc(-c2cn[nH]c2)cc(-c2cn[nH]c2)c1	> 100 µM
2. COc1ccc(/C=C(/C)[N+](=O)[O-])cc1	3.56 µM
3. CCN(CC)CCOc1ccc2c(c1)C(=O)c1cc(OCCN(CC)CC)ccc1-2	6.59 µM
4. Nc1nc(NCC2(CO)CCC2)cc(=O)[nH]1	> 100 µM
5. COc1cc(C2=NN(c3ccc(S(N)(=O)=O)cc3)C(c3ccc(Cl)cc3)C2)cc(OC)c1OC (stereo unspecified)	> 100 µM
6. Cc1ccc(C2C3=C(N=c4s/c(=C/c5ccc(Br)cc5)c(=O)n42)c2ccc4ccccc4c2OCC3)cc1 (stereo unspecified)	> 100 µM
7. COc1cc2ccc1OCc1cccc(n1)COc1ccc(cc1OC)C=Nc1ccc(cc1)-c1ccc(cc1)N=C2	> 100 µM
8. Clc1ccc(C=NC23CC4CC(CC(C4)C2)C3)cc1Cl	> 10 µM
9. O=C1CCCCCC1CC(Sc1ccccc1)Sc1ccccc1 (stereo unspecified)	> 100 µM
10. CC(=O)NC(CCCNC(=O)NCCCl)C(=O)NCc1ccccc1 (stereo unspecified)	> 100 µM

Moving on to the next compound.
Form field, TGI with SR leukemia, item CC(CN1CCN(CC(C)Nc2ccnc3cc(Cl)ccc23)CC1)Nc1ccnc2cc(Cl)ccc12 (stereo unspecified) : 7.45 µM

* * *

Test system: A549 NSCLC
Test: NCI tumour cell line growth inhibition, 48 h
Listed here are molecules together with their documented TGI.

Known TGI results, listed for orientation:
1. O=C(O)/C(=C\c1ccccc1Cl)S(=O)(=O)c1ccccc1	> 100 µM
2. CC(C)(CC#N)c1cc(CC(C)(C)c2cc(CC(C)(C)c3cc(C(C)(C)C4(C)OCCO4)no3)no2)no1	> 100 µM
3. CC(=O)N/N=C1/CC[C@@]2(C)C(=CC[C@H]3C4CCC(C(C)CCCC(C)C)[C@@]4(C)CCC32)C1(C)C (stereo not given in full)	> 100 µM
4. CCCCCCC#CC#Cc1cccc(=O)o1	30.7 µM

Moving on to the next molecule.
The molecule identified as CCc1cccc(C(C)CC)c1NC(=O)C(=O)C(CC(=O)Nc1ccc(Cl)c(Cl)c1)C(=O)OC (stereo not given) registered its TGI at > 100 µM

* * *

Listed here are compounds together with their documented TGI.
Tested on: TK-10 renal
Experiment: NCI tumour cell line growth inhibition, 48 h

The compound identified as `O=C(CNc1ncco1)Nc1ccc(S(=O)(=O)c2ccc(NC(=O)CNc3ncco3)cc2)cc1` registered its TGI at 25 µM

The compound identified as `Cc1cc(=O)oc2c(C)c3oc(CBr)c(Br)c3cc12` registered its TGI at > 100 µM

The compound identified as CC(C)(C)[Si](C)(C)OCC1OC(n2cnc3c(N)ncnc32)CC1OS(C)(=O)=O (stereo not given) registered its TGI at > 100 µM

The compound identified as `Nc1cc(-c2ccc(Cl)cc2)nn1-c1nc2ccccc2nc1-c1ccccc1` registered its TGI at > 100 µM

The compound identified as O=S(=O)(NC1OCCCC1I)c1ccccc1 (stereo not given) registered its TGI at > 100 µM

* * *

Listed here are molecules together with their documented log10 of TGI.
System: HOP-62 NSCLC
Experiment: NCI tumour cell line growth inhibition, 48 h
In plain terms, each number is the log10 of measured TGI in µM.

Known log10 of TGI results, listed for orientation:
1. Oc1c(I)cc(-c2nc3ccccc3s2)cc1CN(Cc1ccccn1)Cc1ccccn1	1.83
2. COC(CN(C=O)[C@@H](c1ccc(Cl)cc1)c1cc2ccccc2o1)OC	1.64
3. COc1ccc2c(c1)cn1c3ccc(O)cc3[nH]c(=O)c21	1.25

The molecule identified as `CN(/N=C\c1ccc2ccccc2c1)C1=NCCN1` registered its log10 of TGI at 1.61

The molecule identified as `CC1(C)CCC[C@]2(C)[C@@H]1CC[C@@]13O[C@@H]1C1=C(CO)C(=O)OC1=C[C@@H]23` registered its log10 of TGI at 1.69

The molecule identified as COC1C(O)C(C)OC(OC2CC3CCC4C(CCC5(C)C(C6=CC(=O)OC6)CCC45O)C3(O)C(OC(C)=O)C2)C1O (stereo not given) registered its log10 of TGI at 0.41

The molecule identified as `O=C(Nc1cccc(O)c1)c1cccc(NC2=C(Cl)C(=O)N(Cc3ccccc3)C2=O)c1` registered its log10 of TGI at 1.53

* * *

Test system: SK-MEL-5 melanoma
Assay: NCI tumour cell line growth inhibition, 48 h
Listed here are molecules together with their documented TGI.

Known TGI results, listed for orientation:
1) CC1CN=C(NS(=O)(=O)c2cc(C(=O)Nc3ccc(F)cc3)c(Cl)cc2S)NN1 (stereo not given)	> 100 µM
2) C[N+](C)(C)CC(=O)N/N=C(/CC1OC(=O)c2ccccc21)c1ccccc1O (stereo not given)	> 100 µM
3) COc1cc(-c2cc(/C=C3\C(=O)Nc4ccccc43)[nH]n2)cc(OC)c1OC	3.45 µM

The molecule identified as `CCOC(=O)C(=O)NCCCN1CCOCC1` registered its TGI at > 100 µM

The molecule identified as `COc1cc2cc(Oc3ccc(NC(=O)Nc4ccc(Cl)c(C(F)(F)F)c4)cc3)c(C)nc2cc1OC` registered its TGI at 2.17 µM

* * *

Tested on: NCI-H226 lung
Assay: NCI tumour cell line growth inhibition, 48 h
Listed here are molecules together with their documented GI50.

Known GI50 results, listed for orientation:
1) CCCN1C(=O)CSC1=Nc1ccc2cc3ccc(N=C4SCC(=O)N4CCC)cc3nc2c1	16.5 µM
2) [C-]#[N+][C@]12C(=O)[C@H](CCC1(C)C)C(C)(C)[C@H]1C(=O)N(C)c3cccc2c31	> 100 µM
3) CCCCCCC#CC#Cc1cccc(=O)o1	2.07 µM
4) CC1SC(c2c(Cl)cccc2Cl)N(NC(=O)C(O)c2ccccc2)C1=O (stereo unspecified)	> 100 µM
5) COc1ccc(C(=O)COc2cccc(/C=C3\CSc4ccc(Cl)cc4C3=O)c2)cc1	14.4 µM

The molecule identified as `N#C/C(N)=C(\C#N)N=Cc1csc2ccccc12` registered its GI50 at 19.4 µM
